# System tested: UniProt:O66040
# Sequence (O66040 entry or part of it): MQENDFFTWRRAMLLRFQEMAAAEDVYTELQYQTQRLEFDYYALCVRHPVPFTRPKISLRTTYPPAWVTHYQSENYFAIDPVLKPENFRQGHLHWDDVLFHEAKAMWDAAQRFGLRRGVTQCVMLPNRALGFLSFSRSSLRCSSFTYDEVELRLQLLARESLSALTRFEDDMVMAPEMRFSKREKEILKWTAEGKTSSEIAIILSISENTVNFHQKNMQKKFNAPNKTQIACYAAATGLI
# Assay info: S. Typhimurium-pJNS25 SdiA reporter, competitive antagonism against 10 nM L-OOHL
# Type: cell-based
# Details: 100 μM compound; average ± STD, change in activity from 10 nM 2 (OOHL)
Reported metric: Antagonism 100 μM Inhibition (%)
Answers are plain numbers, in %.

Examples with answers:
CCCCCCCCc1ccc(C(=O)N[C@H]2CCOC2=O)cc1 | 23
O=C(CC(=O)N[C@H]1CCOC1=O)Cc1ccccc1 [compound 5, reference compound] | 17
O=C(Cc1ccc([N+](=O)[O-])cc1)N[C@H]1CCOC1=O | 14

Attention now shifts to the item below.
Given the entry CCCCCS(=O)(=O)N[C@H]1CCOC1=O , report its measured Antagonism 100 μM Inhibition (%). 13
